Source of measurements: paper PMC3623729

molecular target: human RXRα (Homo sapiens); experiment: RXRE-luciferase reporter gene assay; assay type: cell-based
quantity: RXR activity in words (active / inactive)

Some solved cases for reference:
# molecule, system.tested, measured.value
data = [
    ("COCCCn1c2c(c3ccccc3c1=O)C(=O)c1ccccc1-2 [Compound 108]", "human RXRα (Homo sapiens)", "inactive"),
    ("O=C(O)CCn1c2c(c3ccc(Br)cc3c1=O)C(=O)c1ccccc1-2 [Compound 97]", "human RXRα (Homo sapiens)", "inactive"),
    ("NC(=O)CCn1c2c(c3ccccc3c1=O)C(=O)c1ccccc1-2 [Compound 107]", "human RXRα (Homo sapiens)", "inactive"),
    ("O=C1c2ccccc2-c2c1c1ccc([N+](=O)[O-])cc1c(=O)n2CCCCO [Compound 120]", "human RXRα (Homo sapiens)", "inactive"),
    ("NCCCn1c2c(c3ccccc3c1=O)C(=O)c1ccccc1-2 [Compound 79]", "human RXRα (Homo sapiens)", "high activity"),
    ("O=C1c2ccccc2-c2c1c1ccccc1c(=O)n2CCCO [Compound 151]", "human RXRα (Homo sapiens)", "inactive"),
    ("CN(C)CCCn1c2c(c3ccc(C#N)cc3c1=O)C(=O)c1ccccc1-2 [Compound 129]", "human RXRα (Homo sapiens)", "active"),
    ("Cn1c2c(c3ccc(CC(=O)O)cc3c1=O)C(=O)c1ccccc1-2 [Compound 4]", "human RXRα (Homo sapiens)", "inactive"),
    ("Cn1c2c(c3ccc(NC(=O)C(=O)O)cc3c1=O)C(=O)c1ccccc1-2 [Compound 45]", "human RXRα (Homo sapiens)", "inactive"),
    ("O=C1c2ccccc2-c2c1c1ccc(Br)cc1c(=O)n2CCCn1ccnc1 [Compound 91]", "human RXRα (Homo sapiens)", "inactive"),
]

The recorded RXR activity in words (active / inactive) for entry O=C1c2ccccc2-c2c1c1ccccc1c(=O)n2CCCn1ccnc1 [Compound 102] equals inactive

Form: molecule = CNCCCn1c2c(c3ccc(N)cc3c1=O)C(=O)c1ccccc1-2 [Compound 126] ; RXR activity in words (active / inactive) = high activity

Item: NCCCn1c2c(c3ccc(N)cc3c1=O)C(=O)c1ccccc1-2 [Compound 3] | RXR activity in words (active / inactive): high activity

RXR activity in words (active / inactive) for Cn1c2c(c3ccc(C(N)=O)cc3c1=O)C(=O)c1ccccc1-2 [Compound 31] is inactive

Record NCCCn1c2c(c3ccc(NCC(=O)O)cc3c1=O)C(=O)c1ccccc1-2 [Compound 61] , field RXR activity in words (active / inactive): active

Briefly, RXR activity in words (active / inactive) measured for COC(=O)/C=C/c1ccc2c3c(n(C)c(=O)c2c1)-c1ccccc1C3=O [Compound 12] : inactive

====

biological target: human RXRα (Homo sapiens, UniProt P19793); experiment: RXRE-luciferase reporter gene assay; type: cell-based
Sequence (P19793 whole entry): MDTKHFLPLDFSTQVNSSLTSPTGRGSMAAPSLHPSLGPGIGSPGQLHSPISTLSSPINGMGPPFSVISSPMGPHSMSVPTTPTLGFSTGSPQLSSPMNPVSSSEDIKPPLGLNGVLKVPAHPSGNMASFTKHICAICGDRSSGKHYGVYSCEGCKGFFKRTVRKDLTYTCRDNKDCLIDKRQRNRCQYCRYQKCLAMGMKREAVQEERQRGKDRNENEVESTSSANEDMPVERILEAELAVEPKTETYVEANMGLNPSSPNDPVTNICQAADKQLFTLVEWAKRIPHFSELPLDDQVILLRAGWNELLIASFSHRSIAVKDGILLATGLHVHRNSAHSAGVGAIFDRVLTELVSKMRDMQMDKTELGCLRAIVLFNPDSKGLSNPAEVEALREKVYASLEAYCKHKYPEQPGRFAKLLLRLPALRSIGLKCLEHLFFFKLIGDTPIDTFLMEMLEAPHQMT
quantity: RXR activity in words (active / inactive)

Below, each entry is followed by its recorded RXR activity in words (active / inactive) result.
# molecule, measured.value
records = [
    ("O=C(O)CCn1c2c(c3ccccc3c1=O)C(=O)c1ccccc1-2 [Compound 106]", "inactive"),
    ("Cn1c2c(c3ccc(C=O)cc3c1=O)C(=O)c1ccccc1-2 [Compound 37]", "inactive"),
    ("NCCCn1c2c(c3ccc([N+](=O)[O-])cc3c1=O)C(=O)c1ccccc1-2 [Compound 135]", "detrimental for activity"),
    ("Cn1c2c(c3ccc(C#N)cc3c1=O)C(=O)c1ccccc1-2 [Compound 39]", "inactive"),
]

Data point: O=C1c2ccccc2-c2c1c1ccc([N+](=O)[O-])cc1c(=O)n2CCCO [Compound 145] ; RXR activity in words (active / inactive) = inactive

// [N-]=[N+]=NCCCn1c2c(c3ccc([N+](=O)[O-])cc3c1=O)C(=O)c1ccccc1-2 [Compound 134] : RXR activity in words (active / inactive) value = inactive

The value of RXR activity in words (active / inactive) measured for the molecule CNCCCn1c2c(c3ccc([N+](=O)[O-])cc3c1=O)C(=O)c1ccccc1-2 [Compound 125] turned out to be detrimental for activity

Record summary for Cn1c2c(c3ccc(C(=O)O)cc3c1=O)C(=O)c1ccccc1-2 [Compound 30] : reported RXR activity in words (active / inactive) = inactive
